experiment: in vivo; details: male, Sprague-Dawley, rat, iv, 1 mg/kg
Classification field: met = AUC(0-inf) at or over 5000 ng·h/mL; not met = AUC(0-inf) under 5000 ng·h/mL.

Record excerpt, results attached:
| smilesEntry | groupLabel |
| --- | --- |
| C[C@@H](NC(=O)N1CCC(F)(F)CC1)C(=O)N[C@H](Cc1ccccc1)C(=O)C(=O)NCc1ccccn1 | not met |
| C[C@@H](NC(=O)[C@@H]1C[C@@H]2[C@H](C1)C2(F)F)C(=O)N[C@H](Cc1ccccc1)C(=O)C(=O)NCc1ccccn1 | not met |
| O=C(CC1CCC(F)(F)CC1)NCC(=O)N[C@H](Cc1ccccc1)C(=O)C(=O)NCc1ccccn1 | met |

Does the molecule C[C@@H](NC(=O)C1CCC(F)(F)CC1)C(=O)N[C@H](Cc1ccccc1)C(=O)C(=O)NCc1ccccn1 have recorded AUC(0-inf) that is 5000 ng·h/mL or more? not met

----------
biological target: recombinant SARS-CoV-2 M^pro (Severe acute respiratory syndrome coronavirus 2 (2019-nCoV) (SARS-CoV-2), UniProt P0DTD1); test: Inhibition of SARS-CoV-2 M^pro enzyme activity (fluorescent substrate assay); assay type: biochemical; conditions: inhibition of SARS-CoV-2 M^pro enzyme activity; values in nM; read-out: IC50
propertyLabel: log10 of IC50 (log10 of the value in nM)
// units: nM (pre-log); metric: IC50; scale: log10

Some compounds with recorded log10 of IC50:
| compound | log10 of IC50 |
| --- | --- |
| O=C(Cn1cc(C2CCC(F)(F)CC2)cn1)N[C@H](Cc1ccccc1)C(=O)C(=O)NCc1nccs1 | 1.48 |
| O=C(NCc1ccccn1)C(=O)[C@@H](Cc1ccccc1)NC(=O)[C@H]1COCCN1C(=O)C1(F)CCCCC1 | 1.16 |

For every listed record, write down its log10 of IC50.
1. O=C(NCc1nccs1)C(=O)[C@@H](Cc1ccccc1)NC(=O)n1nc(C(F)(F)F)cc1-c1ccc(F)cc1
2. O=C(CN1C(=O)CN(c2ccc(F)c(Cl)c2)C1=O)N[C@H](Cc1ccccc1)C(=O)C(=O)NCc1nccs1
3. O=C(NCc1ccccn1)C(=O)[C@@H](Cc1ccccc1)NC(=O)[C@@H]1[C@H]2CCC[C@H]2CN1C(=O)COc1ccc(Cl)c(Cl)c1
4. COC[C@@H](NC(=O)C1CCC(F)(F)CC1)C(=O)N[C@H](Cc1ccccc1)C(=O)C(=O)NCc1nccs1 [Compound 395]
5. COc1ccc(OC(C)C(=O)N[C@H](C)C(=O)N[C@H](Cc2ccccc2)C(=O)C(=O)NCc2ccccn2)cc1 (stereo partly shown)

1: 2.78; 2: 1.51; 3: 1.86; 4: 1.26; 5: 1.62

----------
Please respond with reported IC50 for every item in the list.
molecular target: recombinant SARS-CoV-2 M^pro (Severe acute respiratory syndrome coronavirus 2 (2019-nCoV) (SARS-CoV-2)); assay: Inhibition of SARS-CoV-2 M^pro enzyme activity (fluorescent substrate assay); type: biochemical; conditions: inhibition of SARS-CoV-2 M^pro enzyme activity; values in nM; read-out: IC50
Give bare numbers, in nM.

| compound | unitsText | IC50 |
| --- | --- | --- |
| C[C@@H](NC(=O)C1(O)CCCCC1)C(=O)N[C@H](Cc1ccccc1)C(=O)C(=O)NCc1ccccn1 | nM | 52 |
| O=C(CNC(=O)C1CCC(F)(F)CC1)N[C@H](Cc1ccc(Cl)cc1Cl)C(=O)C(=O)NCc1ccccn1 [Compound 451] | nM | 34.4 |
| Cc1ccc(CO[C@H](C)C(=O)N[C@H](Cc2ccccc2)C(=O)C(=O)NCc2ccccn2)cc1 | nM | 19.3 |

Next up:
Requested read-out: IC50. Entry: O=C(CC1CCC(F)(F)CC1)NCC(=O)N[C@H](Cc1ccccc1)C(=O)C(=O)NCc1nccs1 21.8

----------
Please respond with reported CC50 for every item in the list.
tested on: Vero E6 cells; assay: Cytotoxic assay against Vero E6 cells (MTT, 72 h); format: cell-based

Some compounds with recorded CC50:
| compound | CC50 |
| --- | --- |
| C[C@@H](NC(=O)C1CCC(F)(F)CC1)C(=O)N[C@H](Cc1ccccc1)C(=O)C(=O)NCc1nccs1 | > 500 µM |
| C[C@@H](NC(=O)C1CCC(F)(F)C1)C(=O)N[C@H](Cc1ccccc1)C(=O)C(=O)NCc1nccs1 (some centres unmarked) | > 500 µM |
| COC[C@@H](NC(=O)CC1CC(F)(F)C1)C(=O)N[C@H](Cc1ccccc1)C(=O)C(=O)NCc1nccs1 | > 500 µM |
| C[C@@H](NC(=O)CC1CC(F)(F)C1)C(=O)N[C@H](Cc1ccccc1)C(=O)C(=O)NCc1nccs1 | > 500 µM |

Next up:
Requested read-out: CC50. Entry: COC[C@@H](NC(=O)C1CCC(F)(F)CC1)C(=O)N[C@H](Cc1ccccc1)C(=O)C(=O)NCc1nccs1 132 µM

----------
Please respond with reported IC50 for every item in the list.
molecular target: recombinant SARS-CoV-2 M^pro (Severe acute respiratory syndrome coronavirus 2 (2019-nCoV) (SARS-CoV-2)); experiment: Inhibition of SARS-CoV-2 M^pro enzyme activity (fluorescent substrate assay); assay type: biochemical; details: inhibition of SARS-CoV-2 M^pro enzyme activity; values given in μM; read-out: IC50

Some molecules with recorded IC50:
| molecule | IC50 |
| --- | --- |
| O=C(NCc1ccccn1)C(=O)[C@@H](Cc1ccccc1)NC(=O)[C@@H]1C[C@@H]2CCCC[C@@H]2N1C(=O)C1CCC(F)(F)CC1 [Compound 264] | > 2.5 µM |
| O=C(NCc1ncco1)C(=O)[C@@H](Cc1ccccc1)NC(=O)c1ccccc1 [Compound 457] | 51.5 µM |

For every listed record, write down its IC50.
1. O=C(NCc1nccs1)C(=O)[C@@H](Cc1ccc(F)cc1)NC(=O)c1ccccc1 [Compound 466]
2. COc1cccnc1CNC(=O)C(=O)[C@@H](Cc1ccccc1)NC(=O)[C@@H](C)NC(=O)C1CCC(F)(F)CC1 [Compound 339]

1.95 µM
6.13 µM

----------
Please respond with reported IC50 for every item in the list.
target: recombinant SARS-CoV-2 M^pro (Severe acute respiratory syndrome coronavirus 2 (2019-nCoV) (SARS-CoV-2)); test: Inhibition of SARS-CoV-2 M^pro enzyme activity (fluorescent substrate assay); format: biochemical; conditions: inhibition of SARS-CoV-2 M^pro enzyme activity; values given in μM; read-out: IC50
Answers are plain numbers, in µM.

Some compounds with recorded IC50:
| compound | reportedValue |
| --- | --- |
| O=C(NCc1ccon1)C(=O)[C@@H](Cc1ccccc1)NC(=O)c1ccccc1 [Compound 459] | 54.7 |
| O=C(NCc1nccs1)C(=O)[C@@H](CC1CCCCC1)NC(=O)c1ccccc1 [Compound 468] | 10.5 |
| O=C(CCc1ccccc1)N[C@H](Cc1ccccc1)C(=O)C(=O)NCc1nccs1 [Compound 475] | 1.22 |

Next up:
Requested read-out: IC50. Entry: O=C(NCc1nccs1)C(=O)[C@@H](Cc1ccccc1)NC(=O)c1ccc(F)cc1 [Compound 473] 1.31

----------
biological target: human thrombin (Homo sapiens (Human)); assay: Human protease biochemical activity assay: Thrombin activity testing kit
propertyLabel: IC50

Give the reported IC50 for COC[C@@H](NC(=O)C1CCCC(F)(F)C1)C(=O)N[C@H](Cc1ccccc1)C(=O)C(=O)NCc1nccs1 (stereo partly shown) (system: human thrombin (Homo sapiens (Human))). > 100 µM

----------
test: in vivo; assay type: in vivo, beagle dogs; settings: male, dog, in vivo, po; beagle dogs, p.o. 10 mg/kg; read-out: MRTINF—obs
propertyLabel: MRT inf (h)
Give bare numbers, in h.

Requested read-out: MRT inf. Entry: COC[C@@H](NC(=O)C1CCCC(F)(F)C1)C(=O)N[C@H](Cc1ccccc1)C(=O)C(=O)NCc1nccs1 (stereo partly shown) 2.14

----------
test: In vivo pharmacokinetic properties in rats; details: SD rats, i.v. 1 mg/kg
Please respond with reported T1/2 for every item in the list.
Quick note: unit goes after the number.

Some molecules with recorded T1/2:
| molecule | T1/2 |
| --- | --- |
| C[C@@H](NC(=O)CC1CC(F)(F)C1)C(=O)N[C@H](Cc1ccccc1)C(=O)C(=O)NCc1nccs1 [Compound 378] | 5.47 ± 0.77 h |
| COC[C@@H](NC(=O)CC1CC(F)(F)C1)C(=O)N[C@H](Cc1ccccc1)C(=O)C(=O)NCc1nccs1 [Compound 400] | 5.09 ± 0.57 h |
| C[C@@H](NC(=O)C1CCC(F)(F)C1)C(=O)N[C@H](Cc1ccccc1)C(=O)C(=O)NCc1nccs1 (stereo partly shown) [Compound 379] | 1.90 ± 0.27 h |

Next up:
Requested read-out: T1/2. Entry: COC[C@@H](NC(=O)C1CCC(F)(F)CC1)C(=O)N[C@H](Cc1ccccc1)C(=O)C(=O)NCc1nccs1 [Compound 395] 9.49 ± 2.16 h
